Tested Target: T1, GIP receptor (UniProt P48546 22-466, limits assumed)
T1 sequence (looked up): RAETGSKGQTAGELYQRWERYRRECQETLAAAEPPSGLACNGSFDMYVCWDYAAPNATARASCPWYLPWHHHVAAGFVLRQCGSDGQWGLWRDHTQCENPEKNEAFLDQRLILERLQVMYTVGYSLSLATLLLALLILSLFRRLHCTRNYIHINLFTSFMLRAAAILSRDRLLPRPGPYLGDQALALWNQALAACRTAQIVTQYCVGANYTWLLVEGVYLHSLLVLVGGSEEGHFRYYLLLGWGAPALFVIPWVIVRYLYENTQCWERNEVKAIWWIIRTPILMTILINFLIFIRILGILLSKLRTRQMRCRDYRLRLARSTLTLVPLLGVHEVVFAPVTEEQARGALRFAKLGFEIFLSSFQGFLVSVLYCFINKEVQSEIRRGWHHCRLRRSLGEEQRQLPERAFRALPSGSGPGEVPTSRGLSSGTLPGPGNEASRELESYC
Assay Protocol: cell-based or functional assay
Where no end group is shown, it is not given here. [ ]: non-standard residue; d: D form. 40K‑TE = not defined here; Ac3c = NC1(C(=O)O)CC1; Aib = CC(C)(N)C(=O)O
# label = condition met if EC50 (cAMP reporter) < 0.1 nM else condition not met

Binder	Discrete Label
Y[Aib]QGTFTSDYSIYLDKEAA[Aib]KFVNWLLAGGPSSGAPPPSC(40K‑TE)-NH2 (lactam (positions not given here); reading uncertain; also: lactam between underlined residues, underlining not shown) [peptide of SEQ ID NO: 59]	condition not met
Y[dS]QGTFTSDYSIYLDKQAA[Aib]EFVNWLLAGGPSSGAPPPSC(40K‑TE)-NH2 (reading uncertain) [peptide of SEQ ID NO: 51]	condition not met
Y[Aib]QGTFTSDYSIYLDKQAA[Aib]EFVC(40K‑TE PEG)WLLAGGPSSGAPPPSK(C8)-NH2 [peptide of SEQ ID NO: 172]	condition not met
Y[Aib]QGTFISDYSIYLDKQAA[Ac3c]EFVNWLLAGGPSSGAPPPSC(40K‑TE)-NH2 (not fully specified; reading uncertain) [peptide of SEQ ID NO: 75]	condition not met
H[Aib]QGTFISDYSIYLDKQAA[Ac3c]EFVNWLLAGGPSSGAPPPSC(40K‑TE)-NH2 (not fully specified; reading uncertain) [peptide of SEQ ID NO: 74]	condition not met
Y[Aib]QGTFTSDYSIYLDKEAA[Aib]KFVNWLLAGGPSSGAPPPSC-NH2 (lactam (positions not given here); also: lactam between underlined residues, underlining not shown) [peptide of SEQ ID NO: 58]	condition met
Y[Aib]EGTFISDYSIYLDKQAA[Aib]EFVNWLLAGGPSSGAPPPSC(40K‑TE)-NH2 (not fully specified; reading uncertain) [peptide of SEQ ID NO: 72]	condition met

Data origin, for the record: patent US20120238493A1
